system: HeLa; assay: Tumor promoter activity in human HeLa cells assessed as enhancement of incorporation of 32Pi into phospholipid per mg of protein at 10 nM; type: ADME, cell-based; conditions: 0.01 µM
readout_label: relative 32Pi incorporation
Just the number, please, no unit after it.

Task item: Would you mind telling me what relative 32Pi incorporation value was observed for CC(C)=CCC/C(C)=C/Cc1ccc2c3c(c[nH]c13)C[C@@H](CO)NC(=O)[C@H](C(C)C)N2C ?
Reply: 2.61

Task item: Same lookup for C=C[C@](C)(CCC=C(C)C)c1ccc2c3c(c[nH]c13)C[C@@H](CO)NC(=O)[C@H](C(C)C)N2C , please.
Reply: 4.59

Task item: Same lookup for C=C[C@@]1(C)CC[C@](C)(C(C)C)c2cc3c4c(c[nH]c4c21)C[C@@H](CO)NC(=O)[C@H](C(C)C)N3C , please.
Reply: 6.72

* * *

system: HeLa; assay: Tumor promoter activity in human HeLa cells assessed as enhancement of incorporation of 32Pi into phospholipid per mg of protein at 1 nM; assay type: ADME, cell-based; conditions: 0.001 µM
What relative 32Pi incorporation was measured for each of the following?
Just the number, please, no unit after it.

Task item: Would you mind telling me what relative 32Pi incorporation value was observed for C=C[C@](C)(CCC=C(C)C)c1ccc2c3c(c[nH]c13)C[C@@H](CO)NC(=O)[C@H](C(C)C)N2C ?
Reply: 1.57

Task item: Same lookup for CC(C)=CCC/C(C)=C/Cc1ccc2c3c(c[nH]c13)C[C@@H](CO)NC(=O)[C@H](C(C)C)N2C , please.
Reply: 1.41

Task item: Same lookup for C=C[C@@]1(C)CC[C@](C)(C(C)C)c2cc3c4c(c[nH]c4c21)C[C@@H](CO)NC(=O)[C@H](C(C)C)N3C , please.
Reply: 1.82

* * *

What relative 32Pi incorporation was measured for each of the following?
test system: HeLa; test: Tumor promoter activity in human HeLa cells assessed as enhancement of incorporation of 32Pi into phospholipid per mg of protein at 0.1 uM; format: ADME, cell-based
Just the number, please, no unit after it.

Task item: Would you mind telling me what relative 32Pi incorporation value was observed for CC(C)=CCC/C(C)=C/Cc1ccc2c3c(c[nH]c13)C[C@@H](CO)NC(=O)[C@H](C(C)C)N2C ?
Reply: 6.64

Task item: Same lookup for C=C[C@](C)(CCC=C(C)C)c1ccc2c3c(c[nH]c13)C[C@@H](CO)NC(=O)[C@H](C(C)C)N2C , please.
Reply: 8.36

Task item: Same lookup for C=C[C@@]1(C)CC[C@](C)(C(C)C)c2cc3c4c(c[nH]c4c21)C[C@@H](CO)NC(=O)[C@H](C(C)C)N3C , please.
Reply: 7.46
